# System: Vero E6 infected with SARS-CoV-2
# protocol-summary: inhibition of SARS-CoV-2 cytopathic effect; higher = more antiviral protection, active = above 15
# run-parameters: 1 nM; 48 h
value-type: inhibition of SARS-CoV-2 cytopathic effect (%)
Use % as the unit, but write only the number.

CCCC(=O)Nc1cccc(NC(=O)c2ccccc2Br)c1 :: 1.03
Nc1n[nH]c2nnc(-c3c(-c4ccccc4)nn4ccccc34)cc12 :: 0.55
O=C([O-])c1ccccc1-c1c2cc(Br)c(=O)cc-2oc2[c]([Hg+])c([O-])c(Br)cc12.[Na+].[Na+].[OH-] :: -11.2
O=C(C[S+]([O-])C(c1ccccc1)c1ccccc1)NO (centres undefined) :: -1.03
CCOP(=S)(OCC)Oc1nc(Cl)c(Cl)cc1Cl :: 0.53
Cc1ccccc1N(C)C(=O)c1ccc([S+]([O-])c2nccs2)c([N+](=O)[O-])c1 (centres undefined) :: -0.08
NC(=O)CCCCn1ccc(/N=C(\N)NCC(F)(F)F)n1 :: 0.43
Oc1ccc(OCc2ccccc2)cc1 :: -1.3

Q: # query: inhibition of SARS-CoV-2 cytopathic effect of entry `COCCOc1ccc(N2CCN(CCn3ncc4c3nc(N)n3nc(-c5ccco5)nc43)CC2)cc1`
Result: 1.43

Q: # query: inhibition of SARS-CoV-2 cytopathic effect of entry `CCS(=O)(=O)N1CCC[C@@H]2CN3CCc4cc(OC)ccc4[C@@H]3C[C@@H]21`
Result: -0.74

Q: # query: inhibition of SARS-CoV-2 cytopathic effect of entry `Nc1nc(Cl)nc2c1ncn2[C@@H]1O[C@H](CO)[C@@H](O)[C@@H]1F`
Result: 0.13

Q: # query: inhibition of SARS-CoV-2 cytopathic effect of entry CN1CC[C@@]2(C)c3cc(O)ccc3N(C)[C@@H]12 [eseroline-(-)]
Result: 0.81

Q: # query: inhibition of SARS-CoV-2 cytopathic effect of entry O=C(O)/C=C/CO [trans-4-hydroxycrotonic-acid]
Result: 2.26

Q: # query: inhibition of SARS-CoV-2 cytopathic effect of entry `COc1ccc2c(NC(=O)Nc3cccc(C(F)(F)F)n3)ccnc2c1`
Result: 1.28

Q: # query: inhibition of SARS-CoV-2 cytopathic effect of entry `Cc1cccc(C(=O)NCN2CCN(c3ccccc3C#N)CC2)c1`
Result: -2.23
